ASSAY SYSTEM: human ether-à-go-go-related gene (hERG) potassium channel (human);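 also: peak tail current of the secondary pulse compared with the same well before compound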
Sequence (Q12809 whole entry, looked up): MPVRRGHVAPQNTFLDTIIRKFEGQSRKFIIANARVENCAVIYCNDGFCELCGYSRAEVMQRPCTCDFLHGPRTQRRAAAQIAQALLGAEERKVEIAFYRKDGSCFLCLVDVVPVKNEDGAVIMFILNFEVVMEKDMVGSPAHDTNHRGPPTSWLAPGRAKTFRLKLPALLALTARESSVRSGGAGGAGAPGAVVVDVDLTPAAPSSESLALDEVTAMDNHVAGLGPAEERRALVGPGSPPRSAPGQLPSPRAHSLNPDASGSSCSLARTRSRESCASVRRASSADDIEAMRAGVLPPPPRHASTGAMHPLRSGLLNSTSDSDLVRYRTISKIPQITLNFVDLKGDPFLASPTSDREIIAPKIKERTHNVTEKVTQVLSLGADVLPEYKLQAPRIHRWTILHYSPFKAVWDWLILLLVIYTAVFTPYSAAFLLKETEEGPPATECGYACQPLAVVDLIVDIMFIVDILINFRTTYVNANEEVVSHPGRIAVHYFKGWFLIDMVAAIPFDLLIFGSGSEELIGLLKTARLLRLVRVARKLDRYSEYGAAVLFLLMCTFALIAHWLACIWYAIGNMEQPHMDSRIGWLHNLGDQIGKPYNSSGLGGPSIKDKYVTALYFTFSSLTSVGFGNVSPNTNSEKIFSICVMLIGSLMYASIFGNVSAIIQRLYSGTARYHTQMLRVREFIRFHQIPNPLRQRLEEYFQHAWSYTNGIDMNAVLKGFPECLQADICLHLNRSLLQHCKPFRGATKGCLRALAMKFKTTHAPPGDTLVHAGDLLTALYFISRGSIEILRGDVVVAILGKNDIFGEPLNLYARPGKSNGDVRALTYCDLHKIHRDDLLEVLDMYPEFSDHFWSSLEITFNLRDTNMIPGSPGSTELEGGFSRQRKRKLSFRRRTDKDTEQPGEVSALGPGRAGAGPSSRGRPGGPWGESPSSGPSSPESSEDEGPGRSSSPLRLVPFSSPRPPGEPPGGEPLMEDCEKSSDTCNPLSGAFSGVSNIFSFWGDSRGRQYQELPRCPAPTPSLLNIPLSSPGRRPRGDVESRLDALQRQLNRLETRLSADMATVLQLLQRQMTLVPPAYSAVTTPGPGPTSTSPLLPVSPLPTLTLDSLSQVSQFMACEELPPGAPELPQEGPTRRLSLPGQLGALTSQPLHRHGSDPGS
TEST PROTOCOL: primary screen, population patch clamp on CHO cells stably expressing hERG; higher = less effect of the substance
The whole screen tested about 310,000 compounds, of which about 14,000 (4.5%) showed an effect of 50% or more. The effect is printed as a negative number. Shown is part of a subset that was picked to be rich in strong results.
Kind request: treat -10% as inclusive, so hERG current change (%, negative = inhibition) at 10uM at -10% or higher is TRUE, anything lower is FALSE.

>  <COMPOUND>
Cc1ccc2c(c1)N(C(=O)CCC(=O)NCCN1CCOCC1)CCO2

>  <CLASS ASSIGNMENT>
TRUE

$$$$
>  <COMPOUND>
CCC1CCCCN1C(=O)CSc1nc(C)cc(C)n1 (stereo not shown)

>  <CLASS ASSIGNMENT>
FALSE

$$$$
>  <COMPOUND>
Cc1cc(Cl)ccc1NC(=O)CN1C(=O)C(=O)N(C2CCCC2)C1=O

>  <CLASS ASSIGNMENT>
TRUE

$$$$
>  <COMPOUND>
O=S1(=O)c2ccccc2N=NN1Cc1ccc(Cl)cc1

>  <CLASS ASSIGNMENT>
TRUE

$$$$
>  <COMPOUND>
CC1(C)CC(=O)C2=C(C1)N(c1ccccc1C#N)C(N)=C(C#N)C2c1cccs1 (stereo not shown)

>  <CLASS ASSIGNMENT>
FALSE

$$$$
>  <COMPOUND>
CCN1/C(=C\C=C(C(C)=O)C(C)=O)Sc2ccccc21

>  <CLASS ASSIGNMENT>
TRUE

$$$$
>  <COMPOUND>
COc1ccc(-c2cc(C(=O)O)nc3ccc4ccccc4c23)cc1OC

>  <CLASS ASSIGNMENT>
TRUE

$$$$
>  <COMPOUND>
Cc1ccccc1NC(=O)Cc1nc(-c2c[nH]c(C(=O)N3CCCC3)c2)cs1

>  <CLASS ASSIGNMENT>
TRUE

$$$$
>  <COMPOUND>
Cn1c(O)c(N=Nc2nc(-c3ccccc3)cs2)c2ccccc21

>  <CLASS ASSIGNMENT>
TRUE

$$$$
>  <COMPOUND>
Cc1ccnc(NC(=S)NC(=O)c2ccco2)c1

>  <CLASS ASSIGNMENT>
FALSE

$$$$
>  <COMPOUND>
C/C(CC(=O)Nc1ccccc1[N+](=O)[O-])=N\NC(=O)COc1ccccc1C

>  <CLASS ASSIGNMENT>
TRUE

$$$$
>  <COMPOUND>
CCN1/C(=C/C=C/C=C/c2sc3ccccc3[n+]2CC)Sc2ccccc21.[I-]

>  <CLASS ASSIGNMENT>
FALSE

$$$$
>  <COMPOUND>
O=C(CSCc1ccccc1)Nc1ccccc1

>  <CLASS ASSIGNMENT>
TRUE

$$$$
>  <COMPOUND>
COc1cc(-c2csc(C)n2)ccc1O

>  <CLASS ASSIGNMENT>
TRUE

$$$$
>  <COMPOUND>
Cc1cc(NC(=O)CN2CCCC(C)C2)no1.O=C(O)C(=O)O (stereo not shown)

>  <CLASS ASSIGNMENT>
TRUE

$$$$
>  <COMPOUND>
Cc1ccc(CNC(=O)CCC2CCCN(C(=O)c3ccc4c(c3)OCO4)C2)o1 (stereo not shown)

>  <CLASS ASSIGNMENT>
FALSE

$$$$
>  <COMPOUND>
Cc1ccc(CNC(=O)CCC2CCCN(Cc3cccc4c3OCO4)C2)o1 (stereo not shown)

>  <CLASS ASSIGNMENT>
FALSE

$$$$
>  <COMPOUND>
O=C(N/N=C/c1cc([N+](=O)[O-])c(N2CCOCC2)cc1N1CCOCC1)c1cccnc1

>  <CLASS ASSIGNMENT>
FALSE

$$$$
>  <COMPOUND>
O=C(CN1C(=O)C2C3c4ccccc4C(c4ccccc43)C2C1=O)Nc1cccc(C(=O)O)c1 (stereo not shown)

>  <CLASS ASSIGNMENT>
FALSE

$$$$
>  <COMPOUND>
CCn1c(SCC(=O)Nc2ccccc2C(=O)OC)nnc1-c1cccc(C)c1

>  <CLASS ASSIGNMENT>
FALSE

$$$$
>  <COMPOUND>
COC(=O)c1ccc(CN2CCCC(CCC(=O)NCc3ccc(C)o3)C2)cc1 (stereo not shown)

>  <CLASS ASSIGNMENT>
FALSE

$$$$
>  <COMPOUND>
CC(=O)Nc1ccc(NC(=O)CN2CCCC(C)C2)c(Cl)c1 (stereo not shown)

>  <CLASS ASSIGNMENT>
TRUE

$$$$
>  <COMPOUND>
CCC1CCCCN1CC(=O)Nc1cc(C)nn1-c1nc(C)cc(C)n1 (stereo not shown)

>  <CLASS ASSIGNMENT>
FALSE

$$$$
>  <COMPOUND>
CCCCCCCNC(=O)CC(NS(=O)(=O)c1ccc(NC(C)=O)cc1)C(C)C (stereo not shown)

>  <CLASS ASSIGNMENT>
TRUE

$$$$

====

The compounds listed here are annotated with their hERG current change (%, negative = inhibition) at 10uM.
ASSAY SYSTEM: human ether-à-go-go-related gene (hERG) potassium channel (human);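 also: peak tail current of the secondary pulse compared with the same well before compound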
TEST PROTOCOL: primary screen, population patch clamp on CHO cells stably expressing hERG; higher = less effect of the substance
About 14,000 (4.5%) of roughly 310,000 compounds showed an effect of 50% or more. The effect is printed as a negative number. What follows is part of a selection rich in strong results, with near analogues and random picks from the rest.
OUTCOME MEASURE: hERG current change (%, negative = inhibition) at 10uM (%)

>  <COMPOUND>
Cc1cc(C)cc(OCC(=O)Nc2ccc(N3CCN(C(=O)c4ccco4)CC3)cc2)c1

>  <ASSAY RESULT>
-45.8

$$$$
>  <COMPOUND>
O=C(CSc1nc2ccccc2s1)N1N=C(c2cccs2)CC1c1ccc(F)cc1 (stereo not drawn)

>  <ASSAY RESULT>
0.782

$$$$
>  <COMPOUND>
Cc1nc(C(=O)NC2CC2)sc1C1(C)CC(c2ccccc2)=NO1 (stereo not drawn)

>  <ASSAY RESULT>
-8.63

$$$$
>  <COMPOUND>
Cc1ccccc1-n1nc(C)c2c1N=C1C(Cl)=CC(Cl)=CN1C2c1ccc(C(=O)O)cc1 (stereo not drawn)

>  <ASSAY RESULT>
11.9

$$$$
>  <COMPOUND>
CC1CN(c2ccc(C(F)(F)F)cc2[N+](=O)[O-])CCN1S(C)(=O)=O (stereo not drawn)

>  <ASSAY RESULT>
-56.9

$$$$
>  <COMPOUND>
CCn1c(C)[n+](CCOC(C)=O)c2cc(Cl)c(Cl)cc21.[I-]

>  <ASSAY RESULT>
-8.87

$$$$
>  <COMPOUND>
CC(C)OC(=O)c1c(N)n(CC2CCCO2)c2nc3ccccc3nc12 (stereo not drawn)

>  <ASSAY RESULT>
-29.3

$$$$
>  <COMPOUND>
Cc1cc(F)ccc1S(=O)(=O)Nc1ccc(C(=O)N2CCCCCC2)cc1

>  <ASSAY RESULT>
-27.6

$$$$
>  <COMPOUND>
O=[N+]([O-])c1cc(C(F)(F)F)ccc1N1CCC(O)CC1

>  <ASSAY RESULT>
0.342

$$$$
>  <COMPOUND>
COc1ccc(/C=N\NC(=O)c2ccccc2F)cc1COc1ccc(F)cc1F

>  <ASSAY RESULT>
11.7

$$$$
>  <COMPOUND>
CC1CN(c2ccc(Cl)cc2[N+](=O)[O-])CCN1S(C)(=O)=O (stereo not drawn)

>  <ASSAY RESULT>
-41.2

$$$$
>  <COMPOUND>
COc1ccc(Cn2c(=S)[nH]c3cc(C(=O)N4CCCCC4)ccc3c2=O)cc1

>  <ASSAY RESULT>
13.3

$$$$
>  <COMPOUND>
CC(C)(C)C(=O)N1c2ccccc2CCc2ccccc21

>  <ASSAY RESULT>
-0.0543

$$$$
>  <COMPOUND>
CN(C)S(=O)(=O)N1CCC(Oc2ccc(C(=O)NCCc3cscn3)cc2)CC1

>  <ASSAY RESULT>
0.0832

$$$$
>  <COMPOUND>
COc1ccc(C2CC(c3cccs3)=NN2C(=O)CSc2nc(=O)n3ccccc3n2)cc1 (stereo not drawn)

>  <ASSAY RESULT>
-57.5

$$$$
>  <COMPOUND>
CCN(CC(=O)Nc1ccc(Br)cc1)C(=O)Cc1cccc(F)c1

>  <ASSAY RESULT>
-17.4

$$$$
>  <COMPOUND>
CCOc1ccc(/C=N/NC(=O)c2ccc(F)cc2)cc1CN1CC2CC(C1)c1cccc(=O)n1C2 (stereo not drawn)

>  <ASSAY RESULT>
-53.3

$$$$
>  <COMPOUND>
COc1ccc(/C=N/NC(=O)c2ccccc2F)cc1CN1CCN(c2ccc(F)cc2)CC1

>  <ASSAY RESULT>
-76.2

$$$$
